system: HT29 colon; assay: NCI-60 one-dose screen, 48 h; settings: 10 µM unless noted
About 83,000 compounds went through this panel and 20% of them were active in at least one assay; those are over-represented in the sample as a whole. The source made the active and inactive calls. Rule for the calls: active = growth percent below 10; inactive = the rest.
Please state which outcome applies, choosing from active, inactive

Reference set, count: 3
>  <compound>
CCCC[N+](C)(N)CCCC

>  <class-assignment>
inactive

$$$$
>  <compound>
CC(=O)CCS(=O)c1ccccc1 (stereo unspecified)

>  <class-assignment>
inactive

$$$$
>  <compound>
COC(=O)c1ccc(C(=Nc2ccc(N(C)C(=O)CN3CCN(C)CC3)cc2)c2c(O)[nH]c3ccc(C(=O)OC)cc23)cc1

>  <class-assignment>
inactive

$$$$

Write down the call the test reported for this compound. Item: O=Nc1c(-c2c(O)[nH]c3cc(Br)ccc23)[nH]c2ccccc12
active

Write down the call the test reported for this compound. Item: CCCCCCCCCCCCCCCCCCOP(=O)(O)O
inactive

====

system: HCT-116 colon; assay: NCI-60 one-dose screen, 48 h (100 = growth as untreated, 0 = no growth, -100 = all killed); settings: 10 µM unless noted
Compounds without any hit were thinned out: in the full panel of roughly 83,000, 20% have a hit. Activity calls are given as the source filed them. The calls were made as follows: active = growth percent below 10; inactive = the rest.
readout-type: growth

Some solved cases for reference:
>  <compound>
CC1=NN(c2cccc(Cl)c2)C(=O)/C1=C\c1cn(-c2nc(N3CCOCC3)nc(N3CCOCC3)n2)c2ccccc12

>  <readout-value>
94.9% (inactive)

$$$$
>  <compound>
O=C1C(Cl)=C(SC2=NCCN2)C(=O)c2ccccc21

>  <readout-value>
65% (inactive)

$$$$
>  <compound>
CSCc1ncc(-c2ccc(C(F)(F)F)cc2)c(NC2CCCCCC2)n1

>  <readout-value>
38.1% [25 µM] (inactive)

$$$$
>  <compound>
NCCCOc1cc(Cl)ccc1NC(=O)c1cc2ccccc2cc1OCCCN

>  <readout-value>
-97.3% (active)

$$$$
>  <compound>
COc1ccc(C(=O)NCCNc2nccc(-c3c(-c4ccc(F)cc4)nc4sccn34)n2)cc1

>  <readout-value>
31.8% (inactive)

$$$$

Retrieve growth measured for c1ccc(-c2cn3ccnc3c(-c3ccc4ncn(C5CCCCC5)c4c3)n2)cc1 and print it.
40.5% (inactive)

Retrieve growth measured for O=C(/C=C/c1ccc(Br)cc1)c1ccccc1 and print it.
61.6% (inactive)

Retrieve growth measured for CCOC(=O)c1cc(C(=O)c2ccc(Br)cc2)n2cc(C)cc(C)c12 and print it.
75.3% (inactive)

Retrieve growth measured for CCCCCCCCCCCCCCCCCC(=O)Nc1ccc(O)cc1 and print it.
106% (inactive)

Retrieve growth measured for O=C(CN1C(=O)NC(c2ccccc2)(c2ccccc2)C1=O)c1ccc(N2CCCC2)cc1 and print it.
66% (inactive)

====

growth values, listed per item
system: A498 renal; test: NCI-60 one-dose screen, 48 h (100 = growth as untreated, 0 = no growth, -100 = all killed); conditions: 10 µM unless noted
The panel holds about 83,000 compounds, 20% with a hit somewhere; the sample as a whole holds those more often. Activity calls are given as the source filed them. Rule for the calls: active = growth percent below 10; inactive = the rest.

Retrieve growth measured for COc1ccc2c(N)ncc(C#Cc3cc(C(=O)Nc4ccc(CN5CCN(C)CC5)c(C(F)(F)F)c4)cnc3C)c2c1 and print it.
15.4% (inactive)

Retrieve growth measured for CCNc1nnc(COc2ccc(CNC(=O)CCCC/C=C/C(C)C)cc2OC)o1 and print it.
109% (inactive)

Retrieve growth measured for COc1ccc(Cn2cc3c(c2-c2ccccc2)CCc2cnoc2-3)cc1N and print it.
1.34% (active)

====

test system: HCC-2998 colon; assay: NCI-60 one-dose screen, 48 h (100 = growth as untreated, 0 = no growth, -100 = all killed); details: 10 µM unless noted
About 83,000 compounds went through this panel and 20% of them were active in at least one assay; those are over-represented in the sample as a whole. Active and inactive are the calls of the source. Rule for the calls: active = growth percent below 10; inactive = the rest.
growth values, listed per item

Some solved cases for reference:
>  <compound>
CC#Cc1nc(Nc2cc(C)[nH]n2)c2ccccc2n1

>  <growth>
-86.3% [100 µM] (active)

$$$$
>  <compound>
O=C(/C=C/c1c[nH]c2ccccc12)c1cc2ccccc2o1

>  <growth>
105% (inactive)

$$$$
>  <compound>
CC(O)C(N)=O (configuration not stated)

>  <growth>
100% (inactive)

$$$$
>  <compound>
O=C1Nc2c(c(=O)n(-c3ccccc3)c3ccccc23)C(c2ccc(Cl)cc2)N1 (configuration not stated)

>  <growth>
61% (inactive)

$$$$

With those in mind, consider the next compound.
Retrieve growth measured for N=c1c2c(=O)n3c(nc2nc2sc4ccc(Cl)cc4n12)-c1ccccc1Sc1ccccc1-3 and print it.
6.95% (active)

====

Test system: OVCAR-4 ovarian
Experiment: NCI-60 one-dose screen, 48 h (100 = growth as untreated, 0 = no growth, -100 = all killed)
Details: 10 µM unless noted
Procedure: Growth inhibition of the OVCAR-4 human tumor cell line is measured as a screen for anti-cancer activity. Cells are grown in 96 well plates and exposed to the test compound for 48 hours. Compounds are tested at a single concentration, which is 10^-5 M for most compounds. The reported endpoint is percent growth (GI% or GIPRCNT), where numbers from 0 - 100% represent growth inhibition, and numbers from -100% - 0 represent cell death. For example, a value of 40 represents 60% growth inhibition. […]
About 83,000 compounds went through this panel and 20% of them were active in at least one assay; those are over-represented in the sample as a whole.
growth values, listed per item
Could you give me the number in %? Just the number is fine.

>  <compound>
CCOc1ccc(/C=N/NC(=O)c2cccc3ccccc23)cc1OCC

>  <test-target>
OVCAR-4 ovarian

>  <growth (%)>
91.9

$$$$
>  <compound>
O=S(=O)(O)c1ccc2c(c1)Sc1cc(S(=O)(=O)O)ccc1O2

>  <test-target>
OVCAR-4 ovarian

>  <growth (%)>
110

$$$$
>  <compound>
O=C(NCCNCCO)c1cc([N+](=O)[O-])cc([N+](=O)[O-])c1O

>  <test-target>
OVCAR-4 ovarian

>  <growth (%)>
108

$$$$
>  <compound>
Nc1nc2cc(O)ccc2n2cc3c(F)cccc3c12

>  <test-target>
OVCAR-4 ovarian

>  <growth (%)>
-4.95

$$$$
>  <compound>
O=C1OC(c2ccc(-c3ccccc3)cc2)=C/C1=C/c1c2ccccc2cc2ccccc12

>  <test-target>
OVCAR-4 ovarian

>  <growth (%)>
95.7

$$$$
>  <compound>
COC(=O)c1c[n+]([O-])ccc1OC

>  <test-target>
OVCAR-4 ovarian

>  <growth (%)>
123

$$$$
>  <compound>
COc1ccc(C2CC(=O)c3c(O)cc(OC4OC(COC5OC(C)C(O)C(O)C5O)C(O)C(O)C4O)cc3O2)cc1O (stereo not given)

>  <test-target>
OVCAR-4 ovarian

>  <growth (%)>
103

$$$$
>  <compound>
CC(=O)O.[In]

>  <test-target>
OVCAR-4 ovarian

>  <growth (%)>
114

$$$$
>  <compound>
CCCCS(=O)(=O)c1cc(Nc2ccc(O)c3c2C(=O)c2ccccc2C3=O)ccc1C

>  <test-target>
OVCAR-4 ovarian

>  <growth (%)>
78.9

$$$$

With those in mind, consider the next compound.
Retrieve growth measured for CCOc1ccc(Br)cc1/C=C(\C#N)c1ccc([N+](=O)[O-])cc1 and print it.
45.2

====

System: HCT-15 colon
Assay: NCI-60 one-dose screen, 48 h
Conditions: 10 µM unless noted
Protocol: Growth inhibition of the HCT-15 human tumor cell line is measured as a screen for anti-cancer activity. Cells are grown in 96 well plates and exposed to the test compound for 48 hours. Compounds are tested at a single concentration, which is 10^-5 M for most compounds. The reported endpoint is percent growth (GI% or GIPRCNT), where numbers from 0 - 100% represent growth inhibition, and numbers from -100% - 0 represent cell death. For example, a value of 40 represents 60% growth inhibition. […]
The panel holds about 83,000 compounds, 20% with a hit somewhere; the sample as a whole holds those more often. The source made the active and inactive calls. Rule for the calls: active = growth percent below 10; inactive = the rest.
Please state which outcome applies, choosing from yes (active), no (inactive)

Write down the call the test reported for this molecule. Item: COC(=O)C(C(=O)OC)C(Br)C(Br)C(Br)c1ccccc1 (configuration not stated)
no

Write down the call the test reported for this molecule. Item: COc1cc(C(=O)Nc2ccc(N(C)C)cc2)cc(OC)c1OC
no

====

system: A549/ATCC NSCLC; assay: NCI-60 one-dose screen, 48 h (100 = growth as untreated, 0 = no growth, -100 = all killed); details: 10 µM unless noted
This is part of a sample that, as a whole, favours compounds with a hit. Of some 83,000 tested, about 20% had one in any assay.
Binary label based on growth with cut-off 60%: below gives Y, not below gives N.

Reference set, count: 3
>  <molecule>
Cc1ccc(S(=O)(=O)NC(CCC(=O)Nc2ccccc2)C(=O)Nc2ccccc2)cc1 (stereo not drawn)

>  <class-assignment>
Y

$$$$
>  <molecule>
O=c1[nH]c2cc(O)ccc2n2cc3c(F)cccc3c12

>  <class-assignment>
Y

$$$$
>  <molecule>
COc1nc(OC)nc(-c2cc(-c3cc(OC)c(OC)c(OC)c3)no2)n1

>  <class-assignment>
N

$$$$

Lab note: confirm whether the reported growth for this molecule is below 60%, equality not counting. molecule: Cc1nc2ccccc2c(=O)n1-c1cccc(OCc2cn(-c3cccc(O)c3)nn2)c1
N

Lab note: confirm whether the reported growth for this molecule is below 60%, equality not counting. molecule: c1ccc(C(=NNc2nc3ccccc3o2)c2ccccn2)nc1
Y

Lab note: confirm whether the reported growth for this molecule is below 60%, equality not counting. molecule: O=CN/N=C/c1ccc(Cl)c([N+](=O)[O-])c1
Y

Lab note: confirm whether the reported growth for this molecule is below 60%, equality not counting. molecule: CSC1=Nc2c(c(C)c(-c3ccccc3)n2CCCCl)C2=NC(=O)CN12
N

Data origin: PubChem BioAssay (NCI)
